Biological target: hAM1R (human, UniProt Q16602)
Experiment: cell-based or functional assay
Numbered stars: 1 amine (or outer) side, 2 acyl side, 3 side chain; on linkers, the order of the positions; unused ones are H or OH. Bridge positions count the residues as written; N and C are the ends. Square brackets hold non-standard residues; d marks the D form. Ends that are not written are not given here. * marks the point of attachment. C20 diacid = O=C(O)CCCCCCCCCCCCCCCCCCC(=O)*; γGlu = O=C(O)[C@H](CCC(=O)[*:2])N[*:1]; Hyp = O=C(O)[C@@H]1C[C@@H](O)CN1
Think of 900 nM as a floor: if hAM1R EC50 (cAMP) stands on it or above, it is Y; beneath it, N.

binder="GCRTGTCTVQRLAHQIYQFTDKDKDNVAPRTKVGPQG[Hyp]-NH2 (disulfide 2-7 (inferred); ends not checked) [SEQ ID NO: 143]" class_assignment=Y
binder="KCNFATCTVQRLAHQIYQFTDKDKDNVAPPTEVGSNG[Hyp]-NH2 (disulfide 2-7 (inferred); ends not checked) [SEQ ID NO: 10]" class_assignment=N
binder="KCNTATCTVQWLAHAIYQFTDKDKDNVAPPTNVGSNG[Hyp]-NH2 (disulfide 2-7 (inferred); ends not checked) [SEQ ID NO: 308]" class_assignment=Y
binder="KCNTATCTVQRLAEQIYQFTDKDKDNVSPPTNVGSNG[Hyp]-NH2 (disulfide 2-7 (inferred); ends not checked) [SEQ ID NO: 66]" class_assignment=Y
binder="GCRTGTCTVQRLAHQIHQFTNKDKDNVAPRSKISPQT[Hyp]-NH2 (disulfide 2-7 (inferred); ends not checked) [SEQ ID NO: 227]" class_assignment=Y
binder="GCRFGTCTVQRLAHFLYQFTDKDKDNVAPRTNVGSNTY [SEQ ID NO: 56]" class_assignment=N
binder="{C20 diacid-γGlu}-KCNTATCTVQRLAHQIYQFTDKDKDNVAPRTKVGSNG[Hyp] (disulfide 2-7 (inferred); ends not checked) [SEQ ID NO: 99]" class_assignment=N
binder="{C20 diacid-γGlu}-KCNTATCTVIRLAHQIYQFTDKDKDNVAPPTNVGSNG[Hyp]-NH2 (disulfide 2-7 (inferred); ends not checked) [SEQ ID NO: 159]" class_assignment=Y
